# measurement.protocol: BET inhibitor-based combinations targeting novel dependencies in MECOM-rearranged (r) AML: UCSD-AML1 cell line (AID 2202235); further: nearly all actives have a fitted effect of over 40% in size
# cond: UCSD-AML1 AML cells viability, CellTiter-Glo, 48 h; series mostly up to 46 µM
Records with an inconclusive call do not appear. Activity calls are given as the source filed them. The call rests on the fitted dose curve; in most records, active means well fitted inhibition curve with a large enough effect; inconclusive means small, poorly fitted or top-dose-only effect; inactive means no such curve, though single readings can be large or run the other way.
Tick one outcome: active, inactive

{"compound": "Nc1ccc(S(N)(=O)=O)cc1", "discrete.label": "inactive"}
{"compound": "O=C(O)CSCC(=O)NC1CCSC1=O (stereo unspecified)", "discrete.label": "inactive"}
{"compound": "CCC(C)(Oc1ccc(C2(c3ccc(OC(C)(CC)C(=O)O)cc3)CCCCC2)cc1)C(=O)O (stereo unspecified)", "discrete.label": "inactive"}

Qu. Short answer needed: outcome of this test for COc1ccc2c(c1)c(CC(=O)O)c(C)n2C(=O)c1ccc(Cl)cc1 ?
Ans. inactive

Qu. What do we get for CNC(=O)c1cc(Oc2ccc(NC(=O)Nc3cc(C(C)(C)C)nn3-c3ccc4ncccc4c3)c(F)c2)ccn1 ?
Ans. active

Qu. Lookup CN1CCN2c3ncccc3Cc3ccccc3C2C1 (stereo unspecified)
Ans. inactive

###

# target: Retinaldehyde dehydrogenase 3 (Homo sapiens) (UniProt P47895)
# measurement.protocol: qHTS for Inhibitors of the Aldehyde Dehydrogenase Family (ALDH1A3) Confirmatory screens (AID 2061311); further: nearly all actives have a fitted effect of over 60% in size
# cond: ALDH inhibition qHTS; series mostly up to 46 µM
Records with an inconclusive call do not appear. The source made the active and inactive calls. The call rests on the fitted dose curve; in most records, active means well fitted inhibition curve with a large enough effect; inconclusive means small, poorly fitted or top-dose-only effect; inactive means no such curve, though single readings can be large or run the other way.
Please answer using one outcome listed in Yes = active, No = inactive

{"compound": "Cc1ccc(Cl)cc1NS(=O)(=O)c1cc2c(cc1F)NC(=O)CC2", "discrete.label": "Yes"}

Qu. Hi team, can someone confirm the assay call for CN(CC(=O)Nc1ccc(N2CCOCC2)cc1)Cc1c(O)ccc2ccccc12 ?
Ans. Yes

Qu. Same question for O=C(Nc1cncc(O)c1)c1cccs1 please.
Ans. Yes

###

# target: Retinaldehyde dehydrogenase 3 (Homo sapiens) (UniProt P47895)
# measurement.protocol: qHTS for Inhibitors of the Aldehyde Dehydrogenase Family (ALDH1A3) Confirmatory screens (AID 2061311); further: nearly all actives have a fitted effect of over 60% in size; further: potency means the concentration at half of the fitted maximal effect
# cond: ALDH inhibition qHTS; series mostly up to 46 µM
Records with an inconclusive call do not appear. Calls of active or inactive are those of the source. The call rests on the fitted dose curve; in most records, active means well fitted inhibition curve with a large enough effect; inconclusive means small, poorly fitted or top-dose-only effect; inactive means no such curve, though single readings can be large or run the other way.
readout.kind: Potency

Here is how some compounds turned out for Potency.
{"compound": "Cc1cc(N=Nc2ccc(S(=O)(=O)Nc3ccccn3)cc2)c(N)cc1O", "Potency": "11.3 µM (active)"}
{"compound": "N=c1c2c(ncn1-c1ccccc1)Oc1ccc3ccccc3c1C2c1ccc2c(c1)CCO2 (stereo not drawn)", "Potency": "15.8 µM (active)"}
{"compound": "Cc1cc(O)cc(Oc2cc(C)c(C(=O)O)c(O)c2)c1", "Potency": "22.5 µM (active)"}
{"compound": "COc1nc2ccc(Br)cc2cc1[C@@H](c1ccccc1)[C@@](O)(CCN(C)C)c1cccc2ccccc12", "Potency": "8.96 µM (active)"}
{"compound": "C=Cc1c(C)c2cc3[nH]c(cc4nc(cc5nc(cc1[nH]2)C(C)=C5CCC(=O)O)C(CCC(=O)O)=C4C)c(C)c3C=C", "Potency": "25.2 µM (active)"}
{"compound": "O=C1c2ccccc2NC(c2ccc(-c3ccc(Br)cc3)o2)N1O (stereo not drawn)", "Potency": "12.7 µM (active)"}

Give Potency for each listed item.
1. CC(=O)c1ccc(N2CCN(C(=O)c3ccc4c(c3)CC(=O)N4)CC2)cc1
2. Cn1ncc(-c2nnc(-c3ccccc3)n2CCCn2ccnc2)c1N
3. COc1cc2c3c(cc4ccccc4c3c1O)NC2=O

Ans.
1: inactive; 2: inactive; 3: 14.2 µM (active)
